Hello, the source for this data is patent US20190367516A1, in case you need it.

- test.target: human M2 receptor (Homo sapiens)
- Sequence (P08172 1-466): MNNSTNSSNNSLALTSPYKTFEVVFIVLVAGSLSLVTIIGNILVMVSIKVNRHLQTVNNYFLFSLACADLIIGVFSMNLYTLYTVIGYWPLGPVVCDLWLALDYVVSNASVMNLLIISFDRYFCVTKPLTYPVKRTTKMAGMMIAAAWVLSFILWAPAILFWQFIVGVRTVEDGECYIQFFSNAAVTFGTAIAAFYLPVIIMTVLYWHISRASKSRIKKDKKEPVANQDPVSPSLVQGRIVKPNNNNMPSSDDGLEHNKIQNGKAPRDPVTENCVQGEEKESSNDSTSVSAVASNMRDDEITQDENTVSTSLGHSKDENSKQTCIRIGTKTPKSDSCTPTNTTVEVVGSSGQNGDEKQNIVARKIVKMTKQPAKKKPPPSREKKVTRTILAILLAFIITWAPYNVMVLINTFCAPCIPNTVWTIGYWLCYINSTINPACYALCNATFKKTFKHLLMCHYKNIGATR
- experimental.conditions: read-out: Efficiency, boosting of the acetylcholine effect at EC20 acetylcholine concentration; M2-GIRK1/4 reporter cells
quantity.measured: Emax (%)

1. O=C(N[C@H](C1CC1)C(F)(F)F)c1cn(-c2c(F)cc(F)cc2F)c2nc(N3CC4CC4(O)C3)ccc2c1=O (stereo partly shown) [Example 405]    95.5
2. CC(C)C[C@H](NC(=O)c1cn(-c2c(F)cc(F)cc2F)c2nc(N3C[C@@H](O)CC3=O)ccc2c1=O)C(F)(F)F [Example 525]    100
3. O=C(NC12CC(C1)C2)c1cn(-c2c(F)cc(F)cc2F)c2nc(N3CC(O)C4(CC4)C3)ccc2c1=O (single isomer, unassigned) [Example 627]    83.5
4. O=C(N[C@@H](C1CC1)C(F)(F)F)c1cn(-c2c(F)cc(F)cc2F)c2nc(N3CCOC(CO)C3)ccc2c1=O (mixture of isomers) [Example 463]    89
